procedure-text: BSK_SAg_SRB: Viability Assessment in the BioMAP Diversity Plus: SAg Assay (AID 2283096);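 note: cells read one day after compound addition; hits may be either gain or loss of signal compared with DMSO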
assay-setup: primary human HUVEC with PBMC
The source made the active and inactive calls. Rule for the calls: active = hit-call score of the fitted dose curve at least 0.9, where 1 is the maximum; inactive = score below 0.9.
Possible outcomes: TRUE (active), FALSE (inactive)

# compound, class
measured = [
    ("CC(CN=Cc1ccccc1O)N=Cc1ccccc1O (stereo unspecified)", "FALSE"),
    ("O=C1OC[C@H](Cc2cccc(O)c2)[C@H]1Cc1cccc(O)c1", "FALSE"),
    ("C=C(C)C(=O)OCCOCCOCCOC(=O)C(=C)C", "FALSE"),
    ("CC(=O)Nc1ccc(C(=O)CCl)cc1", "TRUE"),
    ("CCCCOC(=O)CCCCCCCC(=O)OCCCC", "FALSE"),
    ("CCCCCCCCCCCCCCCC(=O)OC/C=C(C)/C=C/C=C(C)/C=C/C1=C(C)CCCC1(C)C", "FALSE"),
    ("COc1ccc(CCN2CCC(Nc3nc4ccccc4n3Cc3ccc(F)cc3)CC2)cc1", "TRUE"),
    ("CC(C)(C)CC(C)(C)c1ccc(OCCOCC[N+](C)(C)Cc2ccccc2)cc1", "TRUE"),
    ("Cc1cc(CCC(=O)OCCOCCOCCOC(=O)CCc2cc(C)c(O)c(C(C)(C)C)c2)cc(C(C)(C)C)c1O", "TRUE"),
    ("O=C1OC2(c3ccccc31)c1ccc(O)c(Br)c1Oc1c2ccc(O)c1Br", "FALSE"),
    ("c1ccc(Oc2ccccc2)cc1", "FALSE"),
]

====

procedure-text: ATG_CMV_CIS: Attagene CIS-FACTORIAL HepG2 Assay for human CMV (Internal Marker) (AID 2282928);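 note: endpoint acts as a background internal control marker rather than a target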
assay-setup: HepG2 CMV promoter reporter, transcription factor profiling; actives raise or lower the signal
The source made the active and inactive calls. The calls were made as follows: active = hit-call score of the fitted dose curve at least 0.9, where 1 is the maximum; inactive = score below 0.9.

# compound, AC50
measured = [
    ("Cc1cc(CCC(=O)OCCOCCOCCOC(=O)CCc2cc(C)c(O)c(C(C)(C)C)c2)cc(C(C)(C)C)c1O", "inactive"),
    ("O=CCc1ccccc1", "inactive"),
    ("CCOC(=O)c1ccc(N)cc1", "inactive"),
    ("C/C=C(\\C)C(=O)OCCc1ccccc1", "inactive"),
    ("COC(=O)c1cccnc1", "inactive"),
    ("CC1(C)CCC[C@]2(C)[C@H]3CCO[C@]3(C)CC[C@@H]12", "inactive"),
    ("O=c1c(O)c(-c2ccc(O)cc2)oc2cc(O)cc(O)c12", "9.22 µM (active)"),
    ("CCCCCCCC(=O)OCCCCCC", "inactive"),
    ("Cc1ccc(OC(=O)c2ccccc2O)cc1", "inactive"),
    ("CCCCCCC(O)CCCCCCCCCCC(=O)O (centres undefined)", "inactive"),
    ("CC(C)(C)c1ccc(C(=O)O)cc1", "inactive"),
    ("C=CCCCCCCCCCC", "inactive"),
    ("CCCC[O][Al]([O]CCCC)[O]CCCC", "inactive"),
    ("CCc1cc(C(C)(C)C)c(O)c(C(C)(C)C)c1", "53.9 µM (active)"),
    ("C1CCOC1", "inactive"),
    ("OCCOCCN1CCN(C2=Nc3ccccc3Sc3ccccc32)CC1", "135 µM (active)"),
    ("Cc1c(C2(c3cc(Br)c(O)c(Br)c3C)OS(=O)(=O)c3ccccc32)cc(Br)c(O)c1Br", "inactive"),
    ("CC(C)CCOC(=O)c1ccccc1", "inactive"),
    ("O=C1OC(=O)c2c(Cl)c(Cl)c(Cl)c(Cl)c21", "inactive"),
    ("O=Cc1ccccc1S(=O)(=O)O", "inactive"),
    ("CCCCCCOC(=O)CCC", "inactive"),
    ("CS(=O)(=O)c1ccc(Cl)cc1", "inactive"),
    ("Nc1c(Cl)cc(Cl)cc1[N+](=O)[O-]", "69.1 µM (active)"),
    ("COc1ccc(OC)c(N=Nc2c(O)ccc3ccccc23)c1", "inactive"),
    ("CC(C)CCCCCCc1ccc(OCCOCCO)cc1", "inactive"),
    ("CCCC(=O)OCCc1ccccc1", "inactive"),
    ("O=P(O)(O)O", "inactive"),
    ("CC1=NN(c2ccc(S(=O)(=O)O)cc2)C(=O)C1", "inactive"),
    ("CCCC(=O)OC(C)(C)Cc1ccccc1", "inactive"),
]

====

procedure-text: ATG_TGFb_CIS: Attagene CIS-FACTORIAL HepG2 Assay for human Transforming Growth Factor (TGF) (AID 2282967)
assay-setup: HepG2 Attagene CIS TGFb reporter, mRNA transcription; actives raise or lower the signal
Calls of active or inactive are those of the source. How the source made its calls: active means hit-call score of the fitted dose curve at least 0.9, where 1 is the maximum; inactive means score below 0.9.
Possible outcomes: true (active), false (inactive)

# compound, class
data = [
    ("c1ccc2cc(Nc3ccc(Nc4ccc5ccccc5c4)cc3)ccc2c1", "false"),
    ("CCOc1ccc(N=Nc2ccc(C=Cc3ccc(N=Nc4ccc(OCC)cc4)cc3S(=O)(=O)O)c(S(=O)(=O)O)c2)cc1", "false"),
    ("COc1ccc(COC(C)=O)cc1", "false"),
    ("CCCCCCCC(=O)OCC(O)CO (stereo unspecified)", "false"),
    ("Cc1ccc(OC(=O)c2ccccc2O)cc1", "false"),
    ("CC1CCC(C(C)C)C(O)C1 (stereo unspecified)", "false"),
    ("O=C(O)CNc1ccccc1", "false"),
    ("CCOC(=O)COC(=O)c1cc(Oc2ccc(C(F)(F)F)cc2Cl)ccc1[N+](=O)[O-]", "true"),
    ("CCC1(C)NC(=O)NC1=O (stereo unspecified)", "false"),
    ("COc1ccc(N)c([N+](=O)[O-])c1", "false"),
    ("Clc1cc(Cl)c(-c2c(Cl)c(Cl)cc(Cl)c2Cl)cc1Cl", "false"),
    ("C[C@H]1O[C@@H](O[C@H]2[C@@H](O)C[C@H](O[C@H]3[C@@H](O)C[C@H](O[C@H]4CC[C@@]5(C)[C@H](CC[C@@H]6[C@@H]5C[C@@H](O)[C@]5(C)[C@@H](C7=CC(=O)OC7)CC[C@]65O)C4)O[C@@H]3C)O[C@@H]2C)C[C@H](O)[C@@H]1O", "false"),
    ("CCCCCCCCN1CCCC1=O", "false"),
    ("ClC(c1ccccc1)(c1ccccc1)c1ccccc1", "false"),
    ("CC(=O)C(C)O (stereo unspecified)", "false"),
    ("CCCCCCOC(=O)C(C)C", "false"),
]

====

Read-out: CD40, CD40 (gene 958)
procedure-text: BSK_LPS_CD40: BioMAP Diversity Plus: LPS Assay for CD40 Biomarker Activity (AID 2283076)
assay-setup: primary human HUVEC with PBMC; actives raise or lower the signal
Activity calls are given as the source filed them. The calls were made as follows: active = hit-call score of the fitted dose curve at least 0.9, where 1 is the maximum; inactive = score below 0.9.
Possible outcomes: label 1 for active, label 0 for inactive

# compound, class
rows = [
    ("CCC(C)c1cc([N+](=O)[O-])cc([N+](=O)[O-])c1OC(=O)OC(C)C (stereo unspecified)", "label 1"),
    ("CCN(CC)C(=O)N(CC)CC", "label 0"),
    ("C=C(C)C(=O)OCCOCCOCCOCCOC(=O)C(=C)C", "label 0"),
    ("CCCCCCC(CO)CCCC (stereo unspecified)", "label 0"),
    ("C1=CC2C3C=CC(C3)C2C1 (stereo unspecified)", "label 0"),
    ("C[C@@H]1CCN(C(=O)[C@H](CCCN=C(N)N)NS(=O)(=O)c2cccc3c2NC[C@H](C)C3)[C@@H](C(=O)O)C1", "label 0"),
]

====

procedure-text: BSK_LPS_SRB: Viability Assessment in the BioMAP Diversity Plus: LPS Assay (AID 2283079);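 note: total protein by sulforhodamine B absorbance as a cytotoxicity measure; measured one day after compound addition; fitted in both directions against DMSO so loss or gain of signal counts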
assay-setup: primary human HUVEC with PBMC
The source made the active and inactive calls. The calls were made as follows: active = hit-call score of the fitted dose curve at least 0.9, where 1 is the maximum; inactive = score below 0.9.

# compound, AC50
records = [
    ("C[C@@H]1CCN(C(=O)[C@H](CCCN=C(N)N)NS(=O)(=O)c2cccc3c2NC[C@H](C)C3)[C@@H](C(=O)O)C1", "inactive"),
    ("C1=CC2C3C=CC(C3)C2C1 (centres undefined)", "inactive"),
    ("O=C1c2ccccc2C(=O)c2c(O)ccc(O)c21", "inactive"),
    ("CCC(C)c1cc([N+](=O)[O-])cc([N+](=O)[O-])c1OC(=O)OC(C)C (centres undefined)", "11.9 µM (active)"),
]

====

target-desc: human Thyroid Receptor alpha (THRa1), THRA (gene 7067) (UniProt P10827)
Sequence (P10827 whole entry, looked up): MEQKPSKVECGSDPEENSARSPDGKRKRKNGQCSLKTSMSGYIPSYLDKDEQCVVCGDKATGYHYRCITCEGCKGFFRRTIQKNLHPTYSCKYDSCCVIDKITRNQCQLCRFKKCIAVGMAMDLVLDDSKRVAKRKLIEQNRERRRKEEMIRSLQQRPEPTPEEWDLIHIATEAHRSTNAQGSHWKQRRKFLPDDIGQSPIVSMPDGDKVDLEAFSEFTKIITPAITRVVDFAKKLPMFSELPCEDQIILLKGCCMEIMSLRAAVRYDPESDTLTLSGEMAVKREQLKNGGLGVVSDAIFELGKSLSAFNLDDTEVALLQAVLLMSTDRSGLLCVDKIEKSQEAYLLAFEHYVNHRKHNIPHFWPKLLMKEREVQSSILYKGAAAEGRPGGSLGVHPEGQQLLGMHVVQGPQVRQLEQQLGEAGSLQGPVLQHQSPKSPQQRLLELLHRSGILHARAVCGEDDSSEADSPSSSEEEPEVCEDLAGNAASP
procedure-text: ATG_THRa1_TRANS: Attagene TRANS-FACTORIAL HepG2 Assay for human Thyroid Receptor alpha (THRa1) (AID 2283014)
Results filed as inconclusive are left out. Calls of active or inactive are those of the source. Rule for the calls: active = hit-call score of the fitted dose curve at least 0.9, where 1 is the maximum; inconclusive = response in the unintended direction; inactive = score below 0.9.

# compound, AC50
measured = [
    ("C=CCCCCCCCCCC", "inactive"),
    ("CC(CN=Cc1ccccc1O)N=Cc1ccccc1O (centres undefined)", "inactive"),
    ("CC(=O)c1ccccn1", "inactive"),
    ("CCOC(=O)c1ccc(N)cc1", "inactive"),
    ("COS(=O)(=O)O", "inactive"),
    ("NCCNc1cccc2ccccc12", "inactive"),
    ("O=C1OC(=O)c2c(Cl)c(Cl)c(Cl)c(Cl)c21", "inactive"),
    ("CC1=NN(c2ccc(S(=O)(=O)O)cc2)C(=O)C1", "inactive"),
    ("CN(C)C(=S)SC(=S)N(C)C", "inactive"),
    ("O=C(Nc1ccc2c(c1)Cc1ccccc1-2)C(F)(F)F", "inactive"),
    ("Cc1occc(=O)c1OC(=O)C(C)C", "inactive"),
    ("CC1(C)C(=O)N(Cl)C(=O)N1Br", "inactive"),
    ("O=c1c(O)c(-c2ccc(O)cc2)oc2cc(O)cc(O)c12", "inactive"),
    ("C=CC(=O)OCCCC", "inactive"),
    ("CC(C)(CO)[C@@H](O)C(=O)NCCC(=O)O", "inactive"),
    ("CC(C)C(OC(=O)c1ccccc1)C(C)(C)COC(=O)c1ccccc1 (centres undefined)", "inactive"),
    ("CN(C)C(=O)Nc1ccc(Oc2ccc(Cl)cc2)cc1", "inactive"),
    ("Nc1c(Cl)cc(Cl)cc1[N+](=O)[O-]", "inactive"),
    ("O=C(O)c1cc(C(=O)O)cc([N+](=O)[O-])c1", "inactive"),
    ("CCOC(=O)COC(=O)c1cc(Oc2ccc(C(F)(F)F)cc2Cl)ccc1[N+](=O)[O-]", "inactive"),
    ("COC(=O)Nc1ccc(Cl)c(Cl)c1", "inactive"),
    ("COc1ccc(N)c([N+](=O)[O-])c1", "inactive"),
    ("CC(C)CCCCCCCCCCCCCCC(=O)O", "inactive"),
    ("COc1ccc(OC)c(N=Nc2c(O)ccc3ccccc23)c1", "inactive"),
    ("C=C(C#N)C(=O)OCC", "inactive"),
    ("COc1ccc(COC(C)=O)cc1", "inactive"),
    ("O=C1c2ccccc2C(=O)c2c(O)ccc(O)c21", "inactive"),
    ("CCCCCCCC(=O)OCC(O)CO (centres undefined)", "inactive"),
    ("Oc1c(Cl)cc(Cl)c(Cl)c1Cc1c(O)c(Cl)cc(Cl)c1Cl", "657 nM (active)"),
    ("CCC(C)=O", "inactive"),
    ("C[Si](C)(C)O[Si](C)(C)C", "inactive"),
    ("CCCCC(CC)COC(C)=O (centres undefined)", "inactive"),
    ("Cc1[nH]c(=O)c(C#N)cc1-c1ccncc1", "inactive"),
    ("CN(c1nccc(=O)[nH]1)C1CCN(c2nc3ccccc3n2Cc2ccc(F)cc2)CC1", "inactive"),
]
